For each of the compounds below, state its z-score.
experiment: cell viability in Huh7 cells, primary screen, cytotoxicity control for HCV replication inhibitor project, CellTiter-Glo luminescence, basal, 48 h (AID 1143); details: Huh7 HCV replicon, higher = more signal, called active from +8 up or from −8 down;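 also: Huh7 hepatoma cells carrying a hepatitis C replication reporter with no stimulus; test concentration not given here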
Answer with the value's number alone.

Prompt: // z-score lookup, key: CC(C)=CCCC(C)=CC(O)C1C=CC2C(=O)N(c3ccccc3)C(=O)C2N1Nc1ccccc1F (stereo unspecified)
Response: -2.83

Prompt: // z-score lookup, key: `C=CCNC(=O)[C@H]1[C@@H]2C(=O)O[C@@H](c3ccccc3)[C@@H](c3ccccc3)N2[C@@H](c2ccc(OCCO)cc2)[C@]12C(=O)N(C(=O)OCCOC)c1ccc(C#Cc3ccc(OC)cc3)cc12`
Response: -5.38

Prompt: // z-score lookup, key: `CN(C)CCCC[C@@H]1NC(=O)[C@@H]2C[C@H](C(=O)O)[C@H](c3cccc(OCCO)c3)N2C1=O`
Response: -0.37

Prompt: // z-score lookup, key: `C[C@@]12COC[C@]13C=C(Br)[C@H](C2)[C@@]1(CO1)C3=O`
Response: 0.603

Prompt: // z-score lookup, key: `CC(C)C(=C=CC[C@@H](O)c1cccc(OCCO)c1)C[C@@H](O)COCc1ccccc1`
Response: -2.36

Prompt: // z-score lookup, key: `COCCOC(=O)N1C(=O)[C@@]2(c3cc(C#CCCO)ccc31)[C@H](C(=O)N1CCCCCCC1)[C@H]1C(=O)O[C@H](c3ccccc3)[C@H](c3ccccc3)N1[C@@H]2c1ccccc1OCCO`
Response: -2.07

Each recorded value in this set is attributed to PubChem BioAssay.
